The reported numbers originate from patent US20260183275A1.

Listing of recorded IC50 by entry.
Target: human TLR7 (Homo sapiens)
Sequence (Q9NYK1 27-1049): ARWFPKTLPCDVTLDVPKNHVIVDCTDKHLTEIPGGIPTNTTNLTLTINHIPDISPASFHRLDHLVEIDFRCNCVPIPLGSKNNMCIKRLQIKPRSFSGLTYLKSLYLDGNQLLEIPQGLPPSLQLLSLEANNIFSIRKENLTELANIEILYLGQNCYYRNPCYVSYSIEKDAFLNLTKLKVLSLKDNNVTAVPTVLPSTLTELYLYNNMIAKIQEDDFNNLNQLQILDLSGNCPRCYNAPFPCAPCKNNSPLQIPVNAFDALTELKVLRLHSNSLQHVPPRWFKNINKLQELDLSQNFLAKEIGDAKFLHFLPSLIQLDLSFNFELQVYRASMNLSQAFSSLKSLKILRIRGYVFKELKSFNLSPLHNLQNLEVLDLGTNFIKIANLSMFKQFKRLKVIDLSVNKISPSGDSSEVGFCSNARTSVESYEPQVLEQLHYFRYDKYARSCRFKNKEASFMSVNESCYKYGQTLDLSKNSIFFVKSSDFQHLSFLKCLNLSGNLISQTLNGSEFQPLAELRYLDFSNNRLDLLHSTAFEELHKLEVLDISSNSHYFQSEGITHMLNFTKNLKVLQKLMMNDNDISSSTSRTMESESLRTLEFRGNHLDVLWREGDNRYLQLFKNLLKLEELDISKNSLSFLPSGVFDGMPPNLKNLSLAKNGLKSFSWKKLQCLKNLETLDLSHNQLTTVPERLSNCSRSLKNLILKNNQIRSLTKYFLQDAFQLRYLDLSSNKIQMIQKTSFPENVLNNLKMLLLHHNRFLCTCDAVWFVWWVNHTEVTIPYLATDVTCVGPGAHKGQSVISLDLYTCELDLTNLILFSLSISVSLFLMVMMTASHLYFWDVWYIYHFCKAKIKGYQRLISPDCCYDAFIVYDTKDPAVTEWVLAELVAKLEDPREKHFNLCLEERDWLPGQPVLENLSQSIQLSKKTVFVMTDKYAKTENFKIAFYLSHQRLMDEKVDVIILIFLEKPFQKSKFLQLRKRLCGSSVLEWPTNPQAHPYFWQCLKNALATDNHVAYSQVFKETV
Assay: TLR7 inhibition reporter assay (HEK-Blue cells, SEAP reporter)
Details: HEK-Blue cells overexpressing human TLR7; stimulated with gardiquimod 7.5 μM; SEAP read after 22 hour; dose range 0.05 nM-50 μM
Quick note: give the figure in µM, leave out the unit.

SMILES REPRESENTATION: CC(C)N1CCN(c2ccc(-c3ccc4[nH]c(=O)c(-c5c(Cl)cccc5Cl)cc4c3)cc2)CC1
OBS VALUE: 5.56

SMILES REPRESENTATION: CC(C)N1CCN(c2ccc(-c3ccc4[nH]c(=O)c(-c5ccc(N(C)C)cc5)cc4c3)cc2)CC1
OBS VALUE: 3.07

SMILES REPRESENTATION: CC(C)N1CCC(c2ccc(-c3ccc4c(c3)cc(-c3ccc(S(C)(=O)=O)cc3)c(=O)n4C)cc2)CC1
OBS VALUE: 7.96

SMILES REPRESENTATION: CC(C)N1CCC(c2ccc(-c3ccc4[nH]c(=O)c(-c5cccc(C#N)c5)cc4c3)cc2)CC1
OBS VALUE: 0.538

# input Please report the recorded IC50 for `CC(C)N1CCC(c2ccc(-c3ccc4c(c3)cc(-c3ccc(S(C)(=O)=O)cc3)c(=O)n4CCO)cc2)CC1` .
# output 3.58
